Provenance of the data: patent US7192746B2

test system: α-isomaltosyl-transferring enzyme from Arthrobacter ramosus S1; experiment: Action on saccharides (substrates, TLC); format: biochemical; design: key: −: there was found no substrate change before and after the enzymatic reaction; +: there were found both the reduction of substrate and the formation of cyclotetrasaccharide after the enzymatic reaction; details: 2 units/g substrate, 2% (w/v) substrate, 30° C., pH 6.0, 24 hours
READOUT KIND: Enzymatic action for forming cyclotetrasaccharide, Enzyme of Strain S1

# MOLECULE, TARGET DESC, REPORTED VALUE
records = [
    ("OC[C@H]1O[C@H](OC[C@H]2O[C@H](O[C@H]3[C@H](O)[C@@H](O)[C@@H](O[C@H]4[C@H](O)[C@@H](O)C(O)O[C@@H]4CO)O[C@@H]3CO)[C@H](O)[C@@H](O)[C@@H]2O)[C@H](O)[C@@H](O)[C@@H]1O (stereo partly drawn)", "α-isomaltosyl-transferring enzyme from Arthrobacter ramosus S1", "+"),
    ("OC[C@H]1O[C@H](OC[C@H]2OC(O)[C@H](O)[C@@H](O)[C@@H]2O)[C@H](O)[C@@H](O)[C@@H]1O (stereo partly drawn)", "α-isomaltosyl-transferring enzyme from Arthrobacter ramosus S1", "−"),
    ("OC[C@H]1O[C@H](O[C@H]2O[C@H](CO)[C@@H](O)[C@H](O)[C@H]2O)[C@H](O)[C@@H](O)[C@@H]1O", "α-isomaltosyl-transferring enzyme from Arthrobacter ramosus S1", "−"),
]

----------
tested on: α-isomaltosyl-transferring enzyme from Arthrobacter ramosus S1; test: Influence of metal ions on enzyme activity; type: biochemical; conditions: 1 mM metal ion; enzyme of Strain S1
READOUT KIND: Relative activity (%)
Reply numerically in %, unit not repeated.

Observe how each entry below is paired with its result.
# SUBSTANCE SMILES, READOUT KIND, REPORTED VALUE
records = [
    ("[Mg+2]", "Relative activity", 99),
    ("[Ni+2]", "Relative activity", 87),
    ("[Fe+2]", "Relative activity", 105),
]

Qu. Return reported Relative activity; argument: [Zn+2]
Ans. 78

Qu. Then [Hg+2] ?
Ans. 0.1

Qu. What about this compound? [Sr+2]
Ans. 101

Qu. And the next one, [Ba+2] ?
Ans. 97

----------
system: α-isomaltosyl-transferring enzyme from Arthrobacter globiformis A19; test: Specificity to transferring acceptor; format: biochemical; set-up: key: −: no saccharide transferred product was formed; ±: a saccharide-transferred product formed in an amount of less than one percent to the total sugars; +: a saccharide-transferred product was formed in an amount of over one percent but below 10% to the total sugars; ++: a saccharide-transferred product was formed in an amount of over 10% to the total sugars; settings: partially purified enzyme, panose as saccharide donor, 10 units/g substrate, 3.2% (w/v), 30° C., pH 6.0, 24 hours
READOUT KIND: Product of transferring reaction, Enzyme of Stain A19

# COMPOUND, TARGET DESC, REPORTED VALUE
measured = [
    ("CC(=O)N[C@H]1C(O)O[C@H](CO)[C@@H](O)[C@@H]1O (stereo partly drawn)", "α-isomaltosyl-transferring enzyme from Arthrobacter globiformis A19", "−"),
    ("OC[C@H]1O[C@@H]2O[C@H]3[C@H](O)[C@@H](O)[C@@H](O[C@H]4[C@H](O)[C@@H](O)[C@@H](O[C@H]5[C@H](O)[C@@H](O)[C@@H](O[C@H]6[C@H](O)[C@@H](O)[C@@H](O[C@H]7[C@H](O)[C@@H](O)[C@@H](O[C@H]8[C@H](O)[C@@H](O)[C@@H](O[C@H]9[C@H](O)[C@@H](O)[C@@H](O[C@H]1[C@H](O)[C@H]2O)O[C@@H]9CO)O[C@@H]8CO)O[C@@H]7CO)O[C@@H]6CO)O[C@@H]5CO)O[C@@H]4CO)O[C@@H]3CO", "α-isomaltosyl-transferring enzyme from Arthrobacter globiformis A19", "−"),
]
